Every entry's value here was drawn from patent US20050009840A1.

target: Met kinase domain (GST fusion protein) (Homo sapiens); construct: Purified GST fusion protein containing the Met kinase domain; assay: Met transphosphorylation assay (ELISA, poly(glu-tyr) substrate); type: biochemical; conditions: Table 2; read-out: Met IC50;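 further: Cell-free ELISA with plate-bound poly(Glu:Tyr 4:1) phosphorylated by GST-fused Met kinase domain plus ATP and Mn2+, phosphotyrosine detected by anti-phosphotyrosine antibody with HRP and ABTS read-out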
Sequence (P08581 1078-1345 limits assumed): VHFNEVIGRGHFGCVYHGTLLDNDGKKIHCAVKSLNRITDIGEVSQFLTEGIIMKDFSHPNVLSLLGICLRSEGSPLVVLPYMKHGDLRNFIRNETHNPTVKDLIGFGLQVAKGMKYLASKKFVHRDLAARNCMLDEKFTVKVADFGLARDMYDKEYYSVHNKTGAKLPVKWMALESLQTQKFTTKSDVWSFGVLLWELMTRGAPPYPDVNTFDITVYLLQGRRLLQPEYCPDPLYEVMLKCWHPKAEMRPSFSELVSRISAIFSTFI
quantity: IC50 (nM)

{"compound": "CC(Oc1cc(-c2cccc(OCCN3CCOCC3)c2)cnc1N)c1c(F)ccc(F)c1Cl (stereo not drawn)", "quantity": "IC50", "value units": "nM", "readout value": 220}
{"compound": "Nc1ncc(-c2ccc(C(=O)NCCN3CCOCC3)cc2)cc1OCc1ccccc1C(F)(F)F", "quantity": "IC50", "value units": "nM", "readout value": 5200}
{"compound": "Nc1ncc(-c2ccc(NS(=O)(=O)CCN3CCN(C(=O)CO)CC3)cc2)cc1OCc1c(F)ccc(F)c1Cl", "quantity": "IC50", "value units": "nM", "readout value": 180}
{"compound": "CC(=O)N1CCN(CCS(=O)(=O)Nc2ccc(-c3cnc(N)c(OCc4c(F)ccc(F)c4Cl)c3)cc2)CC1", "quantity": "IC50", "value units": "nM", "readout value": 420}
{"compound": "CC(Oc1cc(-c2cccc(C(=O)NC3CCN(C)CC3)c2)cnc1N)c1c(F)ccc(F)c1Cl (stereo not drawn)", "quantity": "IC50", "value units": "nM", "readout value": 200}
{"compound": "CN(C)C1CCN(C(=O)c2ccc(-c3cnc(N)c(OCc4ccc(C(C)(C)C)cc4)c3)cc2)C1 (stereo in doubt)", "quantity": "IC50", "value units": "nM", "readout value": 4290}
{"compound": "CCN(CC)CCNC(=O)c1ccc(-c2cnc(N)c(OC(C)c3c(Cl)ccc(F)c3Cl)c2)cc1 (stereo not drawn)", "quantity": "IC50", "value units": "nM", "readout value": 40}
{"compound": "Nc1ncc(-c2ccc(C(=O)NCCN3CCOCC3)cc2)cc1OCc1ccc(F)cc1Cl", "quantity": "IC50", "value units": "nM", "readout value": 11000}
{"compound": "CC(Oc1cc(-c2ccc(OCCN(C(C)C)C(C)C)cc2)cnc1N)c1c(Cl)ccc(F)c1Cl (stereo not drawn)", "quantity": "IC50", "value units": "nM", "readout value": 52}
{"compound": "Nc1ncc(-c2ccc(NS(=O)(=O)CCN3CCC[C@H]3CO)cc2)cc1OCc1c(F)ccc(F)c1Cl", "quantity": "IC50", "value units": "nM", "readout value": 97}
{"compound": "CC(Oc1cc(-c2cccc(C(=O)N3CC[C@@H](N)C3)c2)cnc1N)c1c(Cl)ccc(F)c1Cl (stereo partly drawn)", "quantity": "IC50", "value units": "nM", "readout value": 51}
{"compound": "Nc1ncc(-c2cccc(NS(=O)(=O)CCN3CC[C@@H](O)C3)c2)cc1OCc1c(F)ccc(F)c1Cl", "quantity": "IC50", "value units": "nM", "readout value": 1100}
{"compound": "CC(Oc1cc(-c2ccc(NS(=O)(=O)CCNC3CC3)cc2)cnc1N)c1c(F)ccc(F)c1Cl (stereo not drawn) [Example I-328]", "quantity": "IC50", "value units": "nM", "readout value": 160}
{"compound": "CC(Oc1cc(-c2ccc(C(=O)N3CC[C@H](O)C3)cc2)cnc1N)c1c(Cl)ccc(F)c1Cl (stereo partly drawn)", "quantity": "IC50", "value units": "nM", "readout value": 24}
{"compound": "CN(C)[C@H]1CCN(C(=O)c2ccc(-c3cnc(N)c(OCc4ccccc4C(F)(F)F)c3)cc2)C1", "quantity": "IC50", "value units": "nM", "readout value": 1390}

* * *

biological target: HGFR (Homo sapiens); construct: purchased Upstate 14-526; experiment: HGFR continuous-coupled spectrophotometric assay; type: biochemical; conditions: at 1 pM; Table 6, library procedure 41; read-out: % Inhibition (percent c-MET inhibition)
Sequence (P08581 974-1390 limits assumed): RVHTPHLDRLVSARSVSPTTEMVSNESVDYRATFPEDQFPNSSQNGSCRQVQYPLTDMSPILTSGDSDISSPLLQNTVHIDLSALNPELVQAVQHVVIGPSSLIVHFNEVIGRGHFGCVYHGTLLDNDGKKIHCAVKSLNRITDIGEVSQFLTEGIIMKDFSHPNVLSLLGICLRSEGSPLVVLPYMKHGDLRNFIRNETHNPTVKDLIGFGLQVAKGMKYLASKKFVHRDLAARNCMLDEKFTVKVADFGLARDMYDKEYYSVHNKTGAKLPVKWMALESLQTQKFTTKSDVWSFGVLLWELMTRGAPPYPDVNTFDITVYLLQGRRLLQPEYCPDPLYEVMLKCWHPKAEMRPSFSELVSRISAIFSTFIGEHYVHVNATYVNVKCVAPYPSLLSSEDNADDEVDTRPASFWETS
If the reported inhibition at 1 pM equals or exceeds 30%, assign TRUE. If not, assign FALSE.

{"molecule": "NC(=O)N1CCN(C(=O)c2cnc(N)c(OCc3c(Cl)cccc3Cl)c2)CC1 [Example L-216]", "class assignment": "FALSE"}
{"molecule": "Nc1ncc(C(=O)N2CCCCC2CCO)cc1OCc1c(Cl)cccc1Cl [Example L-207]", "class assignment": "TRUE"}
{"molecule": "Nc1ncc(C(=O)N2CCC(O)(Cc3ccccc3)CC2)cc1OCc1c(Cl)cccc1Cl [Example L-231]", "class assignment": "TRUE"}
{"molecule": "CN(C)C(CNC(=O)c1cnc(N)c(OCc2c(Cl)cccc2Cl)c1)c1cccnc1 [Example L-295]", "class assignment": "FALSE"}
{"molecule": "NC(=O)CCNC(=O)c1cnc(N)c(OCc2c(Cl)cccc2Cl)c1 [Example L-253]", "class assignment": "FALSE"}
{"molecule": "Nc1ncc(C(=O)N2CCC3(CC2)COC(CCc2cc(O)n[nH]2)C3)cc1OCc1c(Cl)cccc1Cl [Example L-350]", "class assignment": "TRUE"}
{"molecule": "Nc1ncc(C(=O)N2CCN(CCCO)CC2)cc1OCc1c(Cl)cccc1Cl [Example L-209]", "class assignment": "TRUE"}
{"molecule": "Nc1ncc(C(=O)NCC2=CSC3=NCCN23)cc1OCc1c(Cl)cccc1Cl [Example L-292]", "class assignment": "TRUE"}
{"molecule": "Cn1ccnc1SCC1(O)CCCN(C(=O)c2cnc(N)c(OCc3c(Cl)cccc3Cl)c2)CC1 [Example L-351]", "class assignment": "TRUE"}
{"molecule": "Nc1ncc(C(=O)N2CCC3(CC2)CC3C(=O)NCC2CC2)cc1OCc1c(Cl)cccc1Cl [Example L-349]", "class assignment": "TRUE"}
{"molecule": "Nc1ncc(C(=O)NCCCO)cc1OCc1c(Cl)cccc1Cl [Example L-180]", "class assignment": "FALSE"}
{"molecule": "CS(=O)(=O)CCN1CCN(C(=O)c2cnc(N)c(OCc3c(Cl)cccc3Cl)c2)CC1 [Example L-299]", "class assignment": "FALSE"}
{"molecule": "CC(O)CCNC(=O)c1cnc(N)c(OCc2c(Cl)cccc2Cl)c1 [Example L-238]", "class assignment": "TRUE"}
{"molecule": "Nc1ncc(C(=O)N2CCn3c(CO)nnc3C2)cc1OCc1c(Cl)cccc1Cl [Example L-346]", "class assignment": "TRUE"}
{"molecule": "Nc1ncc(C(=O)N2CCCC(N3CCC(CO)CC3)CC2)cc1OCc1c(Cl)cccc1Cl [Example L-341]", "class assignment": "FALSE"}
{"molecule": "Nc1ncc(C(=O)N2CCC(O)(CCc3ccncc3)CC2)cc1OCc1c(Cl)cccc1Cl [Example L-322]", "class assignment": "FALSE"}
{"molecule": "COc1cc(CCNC(=O)c2cnc(N)c(OCc3c(Cl)cccc3Cl)c2)ccc1O [Example L-233]", "class assignment": "TRUE"}

* * *

Quick reference for inhibition at 0.05 µM among some molecules
target: HGFR (Homo sapiens); construct: purchased Upstate 14-526; assay: HGFR continuous-coupled spectrophotometric assay; assay type: biochemical; details: at 50 nM; Table 5, library procedure 40; read-out: % inhibition (percent c-MET inhibition)

{"molecule": "CC(Oc1cc(-c2ccc(C(=O)N3CCC(CCO)CC3)cc2)cnc1N)c1c(Cl)ccc(F)c1Cl (stereo not drawn)", "value units": "%", "inhibition at 0.05 µM": 72}
{"molecule": "CCN(Cc1ccncc1)C(=O)c1ccc(-c2cnc(N)c(OC(C)c3c(Cl)ccc(F)c3Cl)c2)cc1 (stereo not drawn)", "value units": "%", "inhibition at 0.05 µM": 84}
{"molecule": "C[C@H](Oc1cc(-c2ccc(C(=O)NC[C@@H](C)O)cc2)cnc1N)c1c(Cl)ccc(F)c1Cl", "value units": "%", "inhibition at 0.05 µM": 79}
{"molecule": "CNC(=O)c1ccc(-c2cnc(N)c(OC(C)c3c(Cl)ccc(F)c3Cl)c2)cc1 (stereo not drawn)", "value units": "%", "inhibition at 0.05 µM": 82}
{"molecule": "CC(=O)NCCNC(=O)c1ccc(-c2cnc(N)c(OC(C)c3c(Cl)ccc(F)c3Cl)c2)cc1 (stereo not drawn)", "value units": "%", "inhibition at 0.05 µM": 71}
{"molecule": "CC(Oc1cc(-c2ccc(C(=O)NCCC3CCCN3C)cc2)cnc1N)c1c(Cl)ccc(F)c1Cl (stereo not drawn)", "value units": "%", "inhibition at 0.05 µM": 58}
{"molecule": "CC(Oc1cc(-c2ccc(C(=O)N(C)CCO)cc2)cnc1N)c1c(Cl)ccc(F)c1Cl (stereo not drawn)", "value units": "%", "inhibition at 0.05 µM": 89}
{"molecule": "CCNC(=O)c1ccc(-c2cnc(N)c(OC(C)c3c(Cl)ccc(F)c3Cl)c2)cc1 (stereo not drawn)", "value units": "%", "inhibition at 0.05 µM": 66}
{"molecule": "CC(Oc1cc(-c2ccc(C(=O)NCCO)cc2)cnc1N)c1c(Cl)ccc(F)c1Cl (stereo not drawn)", "value units": "%", "inhibition at 0.05 µM": 89}
{"molecule": "CC(Oc1cc(-c2ccc(C(=O)N3CCN(C4CCN(C)CC4)CC3)cc2)cnc1N)c1c(Cl)ccc(F)c1Cl (stereo not drawn)", "value units": "%", "inhibition at 0.05 µM": 96}
{"molecule": "CC(Oc1cc(-c2ccc(C(=O)N(C)CC#N)cc2)cnc1N)c1c(Cl)ccc(F)c1Cl (stereo not drawn)", "value units": "%", "inhibition at 0.05 µM": 83}
{"molecule": "CC(Oc1cc(-c2ccc(C(=O)N3CCN(c4ccccn4)CC3)cc2)cnc1N)c1c(Cl)ccc(F)c1Cl (stereo not drawn)", "value units": "%", "inhibition at 0.05 µM": 63}
{"molecule": "CC(Oc1cc(-c2ccc(C(=O)N3CCS(=O)(=O)CC3)cc2)cnc1N)c1c(Cl)ccc(F)c1Cl (stereo not drawn)", "value units": "%", "inhibition at 0.05 µM": 95}
{"molecule": "Cc1ccnc(NC(=O)c2ccc(-c3cnc(N)c(OC(C)c4c(Cl)ccc(F)c4Cl)c3)cc2)c1 (stereo not drawn)", "value units": "%", "inhibition at 0.05 µM": 61}
{"molecule": "CC(Oc1cc(-c2ccc(C(=O)N3CCN(CCN(C)C)CC3)cc2)cnc1N)c1c(Cl)ccc(F)c1Cl (stereo not drawn)", "value units": "%", "inhibition at 0.05 µM": 85}
